System: DYRK1B;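 note: KINOMEscan kinase panel screen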
Details: concentration: 1 μM, replicates: in singlicate; n = 1
Class True: %Inh at least 10%. Class False: %Inh below 10%.

>  <Compound>
Nc1ncc(-c2ccc3nccc(-c4ccncc4)c3c2)cc1S(=O)(=O)N1CCOCC1

>  <Cat>
False

$$$$
>  <Compound>
Fc1ccc(-c2ncn(C3CCNCC3)c2-c2ccnc(Oc3ccc(-c4ccccc4)cc3)n2)cc1

>  <Cat>
True

$$$$
>  <Compound>
Cn1cc(-c2[nH]c3cc(NC(=O)[C@H](N)C4CCCCC4)cc4c3c2C=NNC4=O)cn1

>  <Cat>
False

$$$$
>  <Compound>
CN1CCN(CCCNc2nccc(-c3c(-c4ccc(F)cc4)nn4cc(C(F)(F)F)ccc34)n2)CC1

>  <Cat>
False

$$$$
>  <Compound>
Cc1ccc(C)c(NC(=O)NC2CCN(c3ccnc(Nc4ccc(F)cc4)n3)C2)c1 (stereo not shown)

>  <Cat>
False

$$$$
>  <Compound>
COC(=O)Nc1nc2cc(Oc3ccc(NC(=O)Nc4cc(C(F)(F)F)ccc4F)cn3)ccc2[nH]1.Cl.Cl

>  <Cat>
True

$$$$
>  <Compound>
Cc1cccc(Nc2nc(N[C@H]3CCNC3)ncc2C(N)=O)c1.Cl

>  <Cat>
True

$$$$
>  <Compound>
CCCCc1nn2ncccc2c1-c1ccnc(Nc2ccc(N3CCN(C)CC3)cc2)n1

>  <Cat>
True

$$$$
>  <Compound>
Cc1ccc(F)c(C(=O)Nc2cccc(-c3nn4ccccc4c3-c3ccnc(Nc4cccc(F)c4)n3)c2)c1F

>  <Cat>
False

$$$$
>  <Compound>
c1ccc(Oc2ccc(Nc3ccnc4cc(-c5ccc(CNCCN6CCOCC6)o5)ccc34)cc2)nc1

>  <Cat>
False

$$$$
>  <Compound>
O=C(O)C(F)(F)F.O=C(O)C(F)(F)F.O=c1[nH]ccc2nc(N[C@@H]3CCCNC3)nc(Nc3ccc(S(=O)(=O)N4CCOCC4)cc3)c12

>  <Cat>
False

$$$$
>  <Compound>
CC(=O)Nc1nc2cnc(Nc3cc(NC(=O)c4cccc(C5(C#N)CC5)c4Cl)ccc3C)nc2s1

>  <Cat>
True

$$$$
>  <Compound>
CC(C)c1nc(-c2cccc(NS(=O)(=O)c3c(F)cccc3F)c2F)c(-c2ccnc(Nc3ccc(N4CCOCC4)nc3)n2)s1

>  <Cat>
False

$$$$
>  <Compound>
Oc1cc(Nc2ccnc3cc(I)ccc23)ccc1F

>  <Cat>
False

$$$$
>  <Compound>
CC(C)(C)c1ccc2nccc(Nc3cccc(O)c3)c2c1

>  <Cat>
True

$$$$
>  <Compound>
C[C@@H]1CC[C@@H](C(=O)Nc2ccccc2)CN1c1cc(-c2ccc3c(N)n[nH]c3c2)nc(N)n1

>  <Cat>
False

$$$$
